ASSAY DETAILS: protein stability index of a GFP-peptide fusion (GPS, HEK-293T) (PSI 1-6); higher = more stable;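 further: 24-mer peptide tiles fused after GFP, lentivirally expressed, FACS-sorted into six equal bins by GFP/DsRed ratio, decoded by Illumina sequencing, PSI is the read-weighted mean bin number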
PROTOCOL CONDITIONS: treatment: MLN4924 1 uM, 8 h; c terminus: a fixed tail appended
Use Y when the recorded protein stability index is no lower than 3; use N when it is lower.

**Query** Can AGSIGGLFFAVGIAQYALLGYFIR [SLC22A15] be said to have protein stability index at or above 3?
**Result** Y

**Query** Can TEELNKEVASNTEMIQTSKTEITD [KRT15] be said to have protein stability index at or above 3?
**Result** Y

**Query** Can AYQQGVGYQMLGNVVTIGLAFFPF [PHTF1] be said to have protein stability index at or above 3?
**Result** Y

**Query** Can KDIAGEFKEQLQALIPYVLNPSKL [ATL3] be said to have protein stability index at or above 3?
**Result** N

**Query** Can CHSFAAAADGPTVCCNPYHFSRLC [SMAD6] be said to have protein stability index at or above 3?
**Result** N

**Query** Can ITATSLLGTRESDTEVITVEKSSP [BCL2L13] be said to have protein stability index at or above 3?
**Result** Y

**Query** Can ATDPFVAFHINKGLVKKYMNSLLI [FADS1] be said to have protein stability index at or above 3?
**Result** N

**Query** Can NMEKYNFLGISIVGQSNERGDGGI [DVL3] be said to have protein stability index at or above 3?
**Result** Y

**Query** Can EADASHCIQQILEAVLHCHQMGVV [CAMK2A] be said to have protein stability index at or above 3?
**Result** N

**Query** Can FHRLDEPPHICWDETHFGKMGSYY [POMT2] be said to have protein stability index at or above 3?
**Result** N

**Query** Can VTDEEIESLMKDGDKNNDGRIDFD [TNNC2] be said to have protein stability index at or above 3?
**Result** Y

**Query** Can AWISKIKGSPDVSASSDEPYARIQ [SMIM2] be said to have protein stability index at or above 3?
**Result** Y
